Source listed as patent US20240092919A1.

- TARGET_OR_TEST_SYSTEM: T1, Cynomolgus TCR(AEA41865/AEA41866)-zipper protein (cynomolgus monkey)
- T1 construct: also called cyTCR-zipper protein; cynoTCR zipper
- T1 TCR alpha: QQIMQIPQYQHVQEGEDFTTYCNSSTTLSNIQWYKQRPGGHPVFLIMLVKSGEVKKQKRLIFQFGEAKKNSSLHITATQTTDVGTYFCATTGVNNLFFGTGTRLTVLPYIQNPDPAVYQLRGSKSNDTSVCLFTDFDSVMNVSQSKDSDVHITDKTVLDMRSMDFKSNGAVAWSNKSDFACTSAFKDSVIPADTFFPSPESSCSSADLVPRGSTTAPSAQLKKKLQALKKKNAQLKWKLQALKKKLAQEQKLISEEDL
- T1 TCR beta: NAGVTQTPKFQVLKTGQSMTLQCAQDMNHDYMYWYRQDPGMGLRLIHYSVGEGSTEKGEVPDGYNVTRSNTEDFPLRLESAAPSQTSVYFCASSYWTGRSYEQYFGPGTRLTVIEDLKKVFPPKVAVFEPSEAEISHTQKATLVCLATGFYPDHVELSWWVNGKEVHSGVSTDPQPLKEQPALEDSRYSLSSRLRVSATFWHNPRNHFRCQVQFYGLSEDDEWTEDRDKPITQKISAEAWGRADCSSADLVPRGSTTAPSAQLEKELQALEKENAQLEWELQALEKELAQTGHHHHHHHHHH
- EXPERIMENT_DESCRIPTION: SPR ProteOn off-rate screen
RECORDED_ENDPOINT: koff (s⁻¹)

BINDER: T017000363 (VHH) VHH: EVQLVESGGGVVQPGGSLRLSCVASGSVHKINFYGWYRQAPGKEREKVAHISIGDQTDYADSAKGRFTISRDESKNMVYLQMNSLRPEDTALYFCRAMSRIYPYDYWGQGTLVTVSS
QUANTITY_UNIT: s⁻¹
READING: 0.00127
--
BINDER: T017000356 (VHH) VHH: EVQLVESGGGVVQPGGSLRLSCVASGSVHKLNFYGWYRQAPGKEREKVAHISIGDQTDYADSAKGRFTISRDESKNMVYLQMNSLRPEDTALYFCRAMSRIWPYDYWGQGTLVTVSS
QUANTITY_UNIT: s⁻¹
READING: 0.00089
